# assaySystem: Rac GTPase-activating protein 1 (Homo sapiens) (UniProt Q9H0H5)
# Sequence (Q9H0H5 whole entry, looked up): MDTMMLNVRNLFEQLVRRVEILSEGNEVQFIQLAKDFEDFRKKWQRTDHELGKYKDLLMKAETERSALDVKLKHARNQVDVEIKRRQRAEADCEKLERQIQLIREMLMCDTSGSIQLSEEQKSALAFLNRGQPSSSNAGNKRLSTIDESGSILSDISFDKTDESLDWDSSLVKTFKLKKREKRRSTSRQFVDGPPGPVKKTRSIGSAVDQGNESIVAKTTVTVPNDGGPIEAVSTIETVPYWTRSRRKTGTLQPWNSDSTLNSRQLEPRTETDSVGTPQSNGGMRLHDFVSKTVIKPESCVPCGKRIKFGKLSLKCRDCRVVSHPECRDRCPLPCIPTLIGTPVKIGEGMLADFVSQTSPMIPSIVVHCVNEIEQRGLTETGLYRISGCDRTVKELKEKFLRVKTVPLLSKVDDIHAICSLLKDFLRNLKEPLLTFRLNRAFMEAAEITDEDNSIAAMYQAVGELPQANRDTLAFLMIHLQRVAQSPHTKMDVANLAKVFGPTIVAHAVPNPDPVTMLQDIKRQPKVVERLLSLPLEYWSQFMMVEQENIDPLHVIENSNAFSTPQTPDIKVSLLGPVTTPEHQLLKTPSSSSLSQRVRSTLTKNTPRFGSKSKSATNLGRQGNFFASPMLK
# experimentalProtocol: blockers of MgcRacGAP-driven Rac1 GTP hydrolysis – biochemical, ADP Hunter fluorescence, primary and confirmatory, confirmation (AID 624330);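 also: fluorescence reports GDP produced by GAP-driven GTP hydrolysis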
# setupConditions: MgcRacGAP-stimulated Rac1 GTP hydrolysis, at 30 µM, stronger effect = higher value, GST-tagged Rac1 F28L mutant substrate
Among all 340,000 compounds or so, about 2,100 (0.62%) were called active. Not all results are given here. Potency and affinity values are given separately.
The compounds listed here are annotated with their inhibition.
The answer is to be given in %; state only the numeric part.

CC1(C)CC(=O)C(C(C2=C(O)CC(C)(C)CC2=O)c2cccc(O)c2)C(=O)C1 (stereo unspecified)    7.97
COc1cccc(C(C2=C(O)CC(C)(C)CC2=O)C2C(=O)CC(C)(C)CC2=O)c1 (stereo unspecified)    -5.78
CC1(C)CC(=O)C(Br)=C(O)C1    -4.56
O=C1C=C(NCCc2cc(Br)c(O)c(Br)c2)C(=O)c2ncccc21    9.18
O=C(N/N=C/c1ccoc1)c1ccc([N+](=O)[O-])cc1    3.91

The compound listed as O=C(Cc1c(F)cccc1Cl)c1ccc(O)cc1O shows inhibition equal to -1.08

The compound listed as CC1(C)CC(=O)C(C(C2=C(O)CC(C)(C)CC2=O)c2ccc([N+](=O)[O-])cc2)C(=O)C1 (stereo unspecified) shows inhibition equal to 10.9

The compound listed as CCCC(C1=C(O)CC(C)(C)CC1=O)C1C(=O)CC(C)(C)CC1=O (stereo unspecified) shows inhibition equal to 8.39
